Target: HDAC7 (Homo sapiens, UniProt Q8WUI4)
Construct: endogenous in cells; host or cells: HeLa
Sequence (Q8WUI4 1-952): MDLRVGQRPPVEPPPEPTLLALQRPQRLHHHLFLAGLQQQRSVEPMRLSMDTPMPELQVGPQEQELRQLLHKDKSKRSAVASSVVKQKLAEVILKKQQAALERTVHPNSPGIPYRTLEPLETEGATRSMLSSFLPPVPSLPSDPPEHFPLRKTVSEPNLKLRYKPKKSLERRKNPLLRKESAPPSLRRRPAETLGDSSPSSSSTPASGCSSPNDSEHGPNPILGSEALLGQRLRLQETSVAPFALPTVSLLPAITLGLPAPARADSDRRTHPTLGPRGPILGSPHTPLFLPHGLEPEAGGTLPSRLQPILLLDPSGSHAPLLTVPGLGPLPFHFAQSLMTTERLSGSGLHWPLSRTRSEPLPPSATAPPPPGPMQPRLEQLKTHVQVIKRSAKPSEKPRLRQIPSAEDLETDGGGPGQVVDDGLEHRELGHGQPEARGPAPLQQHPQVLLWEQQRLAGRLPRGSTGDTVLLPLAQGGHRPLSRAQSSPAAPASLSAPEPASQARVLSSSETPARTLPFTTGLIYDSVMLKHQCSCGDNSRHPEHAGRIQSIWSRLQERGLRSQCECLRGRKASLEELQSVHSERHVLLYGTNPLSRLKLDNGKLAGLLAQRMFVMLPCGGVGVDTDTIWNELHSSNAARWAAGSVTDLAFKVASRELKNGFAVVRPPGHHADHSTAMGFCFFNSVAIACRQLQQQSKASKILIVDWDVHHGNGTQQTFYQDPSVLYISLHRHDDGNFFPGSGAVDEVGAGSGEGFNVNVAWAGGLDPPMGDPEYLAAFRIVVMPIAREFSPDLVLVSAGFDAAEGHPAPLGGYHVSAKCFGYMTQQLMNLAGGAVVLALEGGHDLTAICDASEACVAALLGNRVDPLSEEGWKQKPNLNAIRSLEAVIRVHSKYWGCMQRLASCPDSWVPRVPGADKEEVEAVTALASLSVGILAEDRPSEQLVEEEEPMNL
Assay: Nur77 reporter gene assay in HeLa cells
Type: cell-based
Settings: HeLa, 24 h, read-out: % of SAHA Response for HDAC7 at 10 μM (Nur77 reporter gene)
readout_type: activation at 10 µM (%)

A selection of reference data follows.
compound	activation at 10 µM (%)
COc1ccc(NC(=O)CCCCCNC(=O)C=C2c3ccccc3-c3ccccc32)c(N)c1 [Example 16]	10
Nc1cc(C(F)(F)F)ccc1NC(=O)CCCCCNC(=O)C=C1c2ccccc2-c2ccccc21 [Example 17]	7
Nc1ccccc1NC(=O)CCCCCNC(=O)C=C1c2ccccc2-c2ccccc21 [Example 13]	66
Nc1ccccc1NC(=O)CCCCNC(=O)C=C1c2ccccc2-c2ccccc21 [Example 7]	19

[1] Nc1cc(Cl)ccc1NC(=O)CCCCCNC(=O)C=C1c2ccccc2-c2ccccc21 [Example 14]
[2] Nc1ccccc1NC(=O)CCCCCCCNC(=O)C=C1c2ccccc2-c2ccccc21 [Example 28]
Q: Could you check which of 1 and 2 has a smaller value for activation at 10 µM? Refer to your chosen entry by its label in the reply.
A: 1
(1: 4%, 2: 20%)

[I] Nc1cc(F)ccc1NC(=O)CCCCNC(=O)C=C1c2ccccc2-c2ccccc21 [Example 8]
[II] Nc1cc(F)ccc1NC(=O)CCCCCNC(=O)C=C1c2ccccc2-c2ccccc21 [Example 12]
Q: Please indicate which has the smaller reported activation at 10 µM: I , or II . Answer by stating the label of the chosen item.
A: I
